TARGET DESC: rTAAR1(A5.42I) (Rattus norvegicus, UniProt Q923Y9, A193I)
Sequence (Q923Y9 whole entry A193I): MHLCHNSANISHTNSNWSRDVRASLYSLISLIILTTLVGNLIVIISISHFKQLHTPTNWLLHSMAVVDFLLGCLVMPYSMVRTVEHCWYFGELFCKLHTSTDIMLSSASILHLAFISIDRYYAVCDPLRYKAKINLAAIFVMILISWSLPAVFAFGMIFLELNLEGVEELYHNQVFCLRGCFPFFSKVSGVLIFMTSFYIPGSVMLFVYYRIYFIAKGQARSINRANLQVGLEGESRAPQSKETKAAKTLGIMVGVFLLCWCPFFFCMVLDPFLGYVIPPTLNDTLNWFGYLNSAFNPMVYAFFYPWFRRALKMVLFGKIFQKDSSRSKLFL
EXPERIMENT DESCRIPTION: cAMP agonist activity assay, rTAAR1
Type: cell-based
MEASUREMENT NAME: EC50

>  <COMPOUND STRUCTURE STRING>
NCCc1ccc(O)cc1

>  <TARGET DESC>
rTAAR1(A5.42I) (Rattus norvegicus, UniProt Q923Y9, A193I)

>  <MEASUREMENT NAME>
EC50

>  <REPORTED RESULT>
> 10 µM

$$$$

* * *

TARGET DESC: mTAAR1(T6.55M) (Mus musculus, UniProt Q923Y8, T268M)
Sequence (Q923Y8 whole entry T268M): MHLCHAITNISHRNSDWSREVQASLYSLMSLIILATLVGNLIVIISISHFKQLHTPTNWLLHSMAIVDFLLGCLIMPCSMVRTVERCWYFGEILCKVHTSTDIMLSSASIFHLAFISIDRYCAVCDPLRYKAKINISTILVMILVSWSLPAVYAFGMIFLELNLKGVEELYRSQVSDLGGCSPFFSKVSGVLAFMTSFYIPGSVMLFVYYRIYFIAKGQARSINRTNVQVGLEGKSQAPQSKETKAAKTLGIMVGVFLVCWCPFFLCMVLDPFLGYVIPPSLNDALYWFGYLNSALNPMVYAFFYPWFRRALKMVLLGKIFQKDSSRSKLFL
EXPERIMENT DESCRIPTION: cAMP agonist activity assay, mTAAR1
CONDITIONS: read-out: EC50 ± SEM
MEASUREMENT NAME: EC50 (nM)

>  <COMPOUND>
NCCc1ccc(Oc2ccc(O)cc2)c(I)c1 [Compound 1, 3-Iodothyronamine]

>  <MEASUREMENT NAME>
EC50

>  <REPORTED RESULT>
1420

$$$$

* * *

TARGET DESC: mTAAR1 (wild type mouse TAAR1) (Mus musculus, UniProt Q923Y8)
Sequence (Q923Y8 whole entry): as the sequence (Q923Y8 whole entry T268M) above, with M268T counted along it
EXPERIMENT DESCRIPTION: In vitro cAMP agonist activity assay, wild type mTAAR1
Format: cell-based
CONDITIONS: read-out: EC50 ± SEM; wild type mTAAR1, HEK293 cells, cAMP

>  <COMPOUND STRUCTURE STRING>
NCCc1ccc(Oc2ccc(O)cc2)c(I)c1

>  <EC50>
314 nM

$$$$
